The reported measurements were obtained from patent US20080187490A1.

Biological target: preformed immune complex of peroxidase-rabbit anti-peroxidase IgG (PAP complex) (rabbit; horseradish) (UniProt P00433)
Sequence (P00433 31-338, one chain of several): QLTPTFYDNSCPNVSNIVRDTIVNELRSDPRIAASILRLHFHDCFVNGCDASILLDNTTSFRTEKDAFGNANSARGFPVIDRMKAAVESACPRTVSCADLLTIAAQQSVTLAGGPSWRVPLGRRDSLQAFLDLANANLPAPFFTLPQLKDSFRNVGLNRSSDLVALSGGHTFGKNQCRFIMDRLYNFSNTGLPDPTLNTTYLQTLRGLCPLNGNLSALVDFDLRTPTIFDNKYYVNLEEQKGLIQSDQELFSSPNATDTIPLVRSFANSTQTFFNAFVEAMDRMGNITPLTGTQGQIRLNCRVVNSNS
Assay: competition reverse ELISA: PAP pre-incubated with peptide, residual PAP binding to FcγIIb-coated plate (competitor: immobilized FcγIIb)
No end group written: not given here.
parameter: OD 405 nm (OD 405 nm)
Answers are plain numbers, in OD 405 nm.

In [3]: df
Out[3]:
                                     binder  measurementunits    val
0  APPDCAWHLGELVWCT [Peptide … (SEQ ID NO:16)]         OD 405 nm  0.496
1  APPCARHLGELVWCT (not fully specified; cysteine pairing not given here) [Peptide … (SEQ ID NO:14)]         OD 405 nm  0.768
2  APPCAFHLGELVWCT (not fully specified; cysteine pairing not given here) [Peptide … (SEQ ID NO:15)]         OD 405 nm   0.38

Provide reported OD 405 nm for each item, in the same order as listed.
1. DCAFHLGELVWCT [Peptide … (SEQ ID NO:3)]
2. APPCAWHLGELVWCT (not fully specified; cysteine pairing not given here) [Peptide … (SEQ ID NO:13)]

1: 0.51; 2: 0.562
